Measured pull-down binding Z-score by item
tested on: TO-3-N3 (biotin conjugate); assay: pull-down binding Z-score (relative to library population); higher = stronger binding; details: RNA library: Library-2

| macromoleculeSequence | testedOn | pull-down binding Z-score |
| --- | --- | --- |
| UGCAGUGCUGGGCAUGGGCUUCUCG [hsa-mir-3677] | TO-3-N3 (biotin conjugate) | 1.07 |
| CAGUGAGCCAAGAUCGUGCCACUG [hsa-mir-1273d] | TO-3-N3 (biotin conjugate) | -0.172 |
| AACAAAUGUGUCAAUUUCAACUUCAAUGGUUUAACAGGCACAGGUGUU | TO-3-N3 (biotin conjugate) | -0.698 |
| GUGCAGAAUGAAUUCUCGUAACUACAUAGCACAAGUAGAUGUAGUUAACUUUAAUCUCAC | TO-3-N3 (biotin conjugate) | -0.768 |
| CUGGGAAGGGAGCUGUCCGGCUCCCCAG [hsa-mir-3155b] | TO-3-N3 (biotin conjugate) | -0.412 |
| CCAAGUCUGACCACCUGAGGAAUGCCUGG [hsa-mir-1269a] | TO-3-N3 (biotin conjugate) | -0.498 |
| AGUGAGCUGAGAUCACGCAACU [hsa-mir-1273f] | TO-3-N3 (biotin conjugate) | -0.37 |
| UAUUGUGUUGAUCAACAAUA [hsa-mir-5590] | TO-3-N3 (biotin conjugate) | -0.858 |
| GUGGAGCCAAAAUUAGAAGGGCCAAAAUUCUACCUGGCCCACUACCACAG [hsa-mir-3978] | TO-3-N3 (biotin conjugate) | -0.3 |
| GUUUUUCUGUUUGGAACUUUAAUUUUAGCCAUGGCAGAUUCCAACGGUACUAUUACCGUUGAAGAGCUUAAAAAGCUCCUUGAAC | TO-3-N3 (biotin conjugate) | -0.86 |
